Entries annotated with measured inhibition at 10 µM
# system name: M1 (Homo sapiens)
# Sequence (P11229 1-460): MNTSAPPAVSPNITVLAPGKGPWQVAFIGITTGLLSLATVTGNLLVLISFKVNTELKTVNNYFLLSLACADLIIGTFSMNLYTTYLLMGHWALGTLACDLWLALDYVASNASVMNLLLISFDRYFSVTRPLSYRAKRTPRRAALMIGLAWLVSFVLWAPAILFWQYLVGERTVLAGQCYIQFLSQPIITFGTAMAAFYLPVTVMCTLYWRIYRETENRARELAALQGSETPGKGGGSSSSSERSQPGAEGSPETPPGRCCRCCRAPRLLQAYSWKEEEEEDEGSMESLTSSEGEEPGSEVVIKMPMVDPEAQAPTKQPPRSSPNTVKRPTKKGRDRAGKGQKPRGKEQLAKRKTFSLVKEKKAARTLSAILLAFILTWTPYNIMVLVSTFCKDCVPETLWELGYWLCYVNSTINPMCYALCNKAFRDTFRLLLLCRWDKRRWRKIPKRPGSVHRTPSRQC
# procedure summary: GPCR Calcium Flux assay (FLIPR tetra, Eurofins), M1
# Assay type: cell-based
# stated conditions: single concentration of 10 uM; read-out: inhibition rate (%) M1
Where a name gives a salt, the structure may show the parent alone.
All answers are understood in %, so give the number only.

Past entries and their recorded results:
molecule="CNCc1cn(S(=O)(=O)c2cccc(Cl)c2)c(-c2c(F)ccc(F)c2F)c1OC [Example 28, hydrochloride]" readout_label="inhibition at 10 µM" meas_value=99.4
molecule="CNCc1cn(S(=O)(=O)c2cccc(OC)c2)c(-c2c(F)ccc(F)c2F)c1OC [Example 30, hydrochloride]" readout_label="inhibition at 10 µM" meas_value=94.3
molecule="CNCc1cn(S(=O)(=O)c2cccc(Cl)c2)c(-c2c(F)cccc2F)c1OC [Example 14, hydrochloride]" readout_label="inhibition at 10 µM" meas_value=94.9
molecule="CNCc1cn(S(=O)(=O)c2ccc(F)c(F)c2)c(-c2c(F)cccc2F)c1OC [Example 19, hydrochloride]" readout_label="inhibition at 10 µM" meas_value=101
molecule="CNCc1cn(S(=O)(=O)c2cccc(C(F)(F)F)c2)c(-c2c(F)cc(F)cc2F)c1OC [Example 24, hydrochloride]" readout_label="inhibition at 10 µM" meas_value=93.4

Let me know recorded inhibition at 10 µM for CNCc1cn(S(=O)(=O)c2cccc(F)c2)c(-c2cc(F)ccc2F)c1OC [Example 31, hydrochloride] , thanks.
100

Let me know recorded inhibition at 10 µM for CNCc1cn(S(=O)(=O)c2cccc(OC(F)F)c2)c(-c2ccc(F)cc2F)c1OC [Example 12, hydrochloride] , thanks.
93.1

Let me know recorded inhibition at 10 µM for CNCc1cn(S(=O)(=O)c2ccc(F)c(F)c2)c(-c2c(F)cc(F)cc2F)c1OC [Example 26, hydrochloride] , thanks.
101

Let me know recorded inhibition at 10 µM for CNCc1cn(S(=O)(=O)c2cccc(C(F)(F)F)c2)c(-c2c(F)cccc2F)c1OC [Example 15, hydrochloride] , thanks.
87.1

Let me know recorded inhibition at 10 µM for CNCc1cn(S(=O)(=O)c2cccc(C)c2)c(-c2ccc(F)cc2F)c1OC [Example 10, hydrochloride] , thanks.
96.2

Let me know recorded inhibition at 10 µM for CNCc1cn(S(=O)(=O)c2cccc(F)c2)c(-c2ccc(F)cc2F)c1OC.Cl [Example 8, hydrochloride] , thanks.
101

Let me know recorded inhibition at 10 µM for CNCc1cn(S(=O)(=O)c2cccc(OC)c2)c(-c2ccc(F)cc2F)c1OC [Example 11, hydrochloride] , thanks.
97.2

Let me know recorded inhibition at 10 µM for CNCc1cn(S(=O)(=O)c2cccc(Cl)c2)c(-c2ccc(Cl)cc2F)c1OC [Example 6, hydrochloride] , thanks.
93.1
